List of half-life values.
- ASSAY_REMARKS: in vivo
- CONDITION_SUMMARY: NMRI, mouse
MEASURED_PARAMETER: half-life (min)

                                 cpd_smiles  scale_unit  value_observed
0  Cn1cc(-c2ccc(-c3cncc(Cl)c3N3CCC4(CCNC4=O)CC3)cc2)cn1         min              33
1  Cn1ncc2cc(-c3cnc(N)c(Cl)c3N3CCC4(CCNC4=O)CC3)ccc21         min            46.8

----------
List of microsomal CLint values.
- ASSAY_REMARKS: in vitro
- CONDITION_SUMMARY: rat, microsomes
MEASURED_PARAMETER: microsomal CLint (µL/min/mg)

>>> df
                                 cpd_smiles  value_observed
0  CC(C)n1ncc2cc(-c3cnc(N)c(Cl)c3N3CCC4(CCNC4=O)CC3)ccc21             139
1  Cn1cc(-c2ccc(-c3cncc(Cl)c3N3CCC4(CCNC4=O)CC3)cc2)cn1              54

Cited source: ChEMBL document CHEMBL3797072
